Tested on: K4 kissing-loop RNA reporter
ASSAY_COMMENT: apparent KD of K4 kissing-loop reporter; higher = weaker reporter binding
ASSAY_CONTEXT: Eterna round: R107; input ligand: FMN 200 uM
Field: apparent KD of K4 kissing-loop reporter. Provide a value for each of the sequences that follow.
A number alone suffices; assume nM.

Lookup: Give apparent KD of K4 kissing-loop reporter for UGAUACCAGACUGAUACCAGCCAGUGAUGUUGGCUAAGCCAAAUAGGAGUCAAAGACUCCGGCCCUUGGCAGCAGUCUGGUAUCU [TheoBX 5 #SwitchBubble #StaticStem]
Found: 127

Lookup: Give apparent KD of K4 kissing-loop reporter for UAAGAAUAAGUAGCAGUGAUGUUGCUACUGCGAGGACCGGUACGGCCGCCACUCGAGUCCUCGAAACAUCACUGAACGAGGAAUA [whbob_SS_Tryp_A_m11]
Found: 298

Lookup: Give apparent KD of K4 kissing-loop reporter for GGGCCUGGGCCCGUAAGGGCCUGGGCCCGUUAGGAUAUGACGUGAUUCAGAAGGGAUGGGUGGAGUGAUGUUCCACCCGAGAGGG [#2 Same State - FMN A Attempt #24 (HarryS)]
Found: 111

====

Test system: K4 kissing-loop RNA reporter;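 also: bound reporter read as fluorescence of individual clusters on recovered sequencing chips by microscopy, with normalized cluster intensities fitted with a binding model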
ASSAY_COMMENT: apparent KD of K4 kissing-loop reporter; higher = weaker reporter binding
ASSAY_CONTEXT: Eterna round: R107; input ligand: arginine 13.2 mM
OBSERVABLE: apparent KD of K4 kissing-loop reporter (µM)
A number alone suffices; assume µM.

Lookup: Give apparent KD of K4 kissing-loop reporter for UGCCCGCGCGAAGGAUAUGAGAGCUUGUCUGUCCAGUGAUGUUGGAGGUUGGUGAUUUGCUAGGCGUCAGAAGGUCGAGCUUAUA [theeternabot_sameState_KL_FMN_B_14]
Found: 0.0944

Lookup: Give apparent KD of K4 kissing-loop reporter for UGCCGGAAGGCGAGCGCUCCCACUCCGGAAGGAGCGCCCGUAAGGGCAGGUAGGUCGCCGGAGUGAUGUUCCGGUGGAGGGCUCG [#2 Exclusion - Arginine A Attempt #22 (Inspired by Omei)]
Found: 0.128

Lookup: Give apparent KD of K4 kissing-loop reporter for AAUGUACAAGUGAUGUUUGUACUUUCCGAAGGAGCGUCUAAUAAGACAGGUAGGUCGCGGAUACUCUAAAUAAUCAGGUCAUUGA [#06 K4 Arginine A Exclusion]
Found: 0.089

Lookup: Give apparent KD of K4 kissing-loop reporter for ACCACCAGCCGCACGAUACACGGGCAUUACCGAGGACCGGUACGGCCGCCACUCGCCCGCACGCUGGAUCGAGUGAUGUUCGAUC [theeternabot_sameState_KL_Trp_A_15]
Found: 0.334

Lookup: Give apparent KD of K4 kissing-loop reporter for AAGGCACGGCUUCGGCCGUGCCAAAUAGAUACCAGCAUAAUAAUAUGCCCUUGGCAGCUAAAUAUAAAUUCAGUGAUGUUGGAUA [SS Theo A Tesla 2.2]
Found: 0.412

Lookup: Give apparent KD of K4 kissing-loop reporter for UGAUAGGACAGAAGGAGCGGAGCUGGUCAAAGACCAGCAAUAACGUUGAAAGGAGUGAUGUUCCAGGUAGGUCGCUGUCCUAUCU [ArgBX 26 #SwitchBubble #StaticStem]
Found: 0.13

Lookup: Give apparent KD of K4 kissing-loop reporter for UCCUAGGCUCGAAAGAGCCUAGGAUGGACUCAGGAUAUCCGGAAACGGAGAAGGGAGUCACUAGUGAUGUUAGGGACUCCCUAAC
Found: 0.0977

Lookup: Give apparent KD of K4 kissing-loop reporter for UGUCAUUGGUCUGAUACCAGUUGAUAAACUGGAGUGAUGUUCCUCGACGAAUACGUCGACAACCCUUGGCAGCAGACCGAUGACU [TheoBS 14 #SwitchBubble 13 #StaticStem]
Found: 0.627

Lookup: Give apparent KD of K4 kissing-loop reporter for GGGUCAUGGAACGGAUAAGUGAUGUUUACCCGAGGACCGGUACGGCCGCCACUCGGUCGUUAUUUCCGACGUGCUGGUAAGACUA [theeternabot_exclusion_KL_Trp_A_10]
Found: 0.253

Lookup: Give apparent KD of K4 kissing-loop reporter for UGUCAUGGAAACAUGAACGUUGAAAUAAAUCGAGGACCGGUACGGCCGCCACUCGUAUAGCGGUCAGUGAUGUUGACUGUAAUAA [KL-SSTryp-A form2 sub9]
Found: 0.112

Lookup: Give apparent KD of K4 kissing-loop reporter for CGCAGUGAUGUUGCGAGUAGCUACAGGGAAGGAGCGUGCUAGAGCACAGGUAGGUCGCCCACUGGGUCAGUGAUGUUGGUCGGGU [Same State Arginine A GF 29]
Found: 0.166
